- measurement_target: EphrinB2-EphB2 (Homo sapiens, UniProt P29323)
- Construct: soluble human EphB1-His, EphB2-His, and EphB4-His ectodomains; commercially available human EphrinB1-Fc (EB1), EphrinB2-Fc (EB2), and EphrinB3-Fc (EB3) ectodomain proteins; purchased
- procedure_text: Octet tetramerization inhibition, immobilized human EphrinB2 binding to 50 nM soluble human EphB2
- measurement_context: Relative AUC/IC50, Table A, EphrinB2-EphB2; compound 7: association only
Below is a list of entries, each paired with its recorded IC50 value.

Consider the reported IC50 for these compounds:
>>> df
                                   compound  readout_kind  measured_value
0  Oc1ccc(CN2CCN(c3ccc(F)cc3F)CC2)c2cccnc12 [Compound 62]          IC50        > 1.6 µM
1  O=[N+]([O-])c1cc(CN2CCOCC2)c2cccnc2c1O [Compound 9]          IC50        > 3.2 µM
2  O=C(Cc1ccccc1)Nc1ccc(N2CCN(Cc3cc(Br)c(O)c4ncccc34)CC2)cc1 [Compound 52]          IC50        > 3.2 µM
3  COc1ccc2[nH]cc(C(=O)N3CCN(c4ccccc4OC)CC3)c2c1 [Compound 64]          IC50        > 1.6 µM
4  COc1ccc2[nH]cc(C(=O)N3CCOCC3)c2c1 [Compound 63]          IC50        > 3.2 µM

Pending compound:
GET /values?readout=IC50&item= Oc1ccc(CN2CCN(Cc3ccc(C(F)(F)F)cc3)CC2)c2cccnc12 [Compound 48]
> 1.6 µM

---

- measurement_target: EphrinB2-EphB2 (Homo sapiens, UniProt P29323)
- Construct: soluble human EphB1-His, EphB2-His, and EphB4-His ectodomains; commercially available human EphrinB1-Fc (EB1), EphrinB2-Fc (EB2), and EphrinB3-Fc (EB3) ectodomain proteins; purchased
- Sequence (P29323 19-543 limits assumed): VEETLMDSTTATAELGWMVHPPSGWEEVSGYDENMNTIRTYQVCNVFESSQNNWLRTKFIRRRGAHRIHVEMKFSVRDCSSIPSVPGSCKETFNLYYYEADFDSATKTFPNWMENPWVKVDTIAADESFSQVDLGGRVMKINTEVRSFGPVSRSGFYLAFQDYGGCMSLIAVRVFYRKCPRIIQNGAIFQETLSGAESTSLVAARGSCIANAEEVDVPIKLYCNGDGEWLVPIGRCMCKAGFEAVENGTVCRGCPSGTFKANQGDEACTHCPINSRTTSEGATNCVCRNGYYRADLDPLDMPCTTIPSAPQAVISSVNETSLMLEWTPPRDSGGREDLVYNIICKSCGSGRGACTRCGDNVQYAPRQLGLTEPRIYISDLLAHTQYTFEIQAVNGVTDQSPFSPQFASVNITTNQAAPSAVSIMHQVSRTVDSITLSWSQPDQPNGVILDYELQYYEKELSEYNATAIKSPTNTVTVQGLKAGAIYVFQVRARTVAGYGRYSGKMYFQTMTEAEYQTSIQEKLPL
- procedure_text: Octet 80 sec association/500 sec dissociation, immobilized human EphrinB2-Fc binding to soluble human EphB2-His
- measurement_context: at 3.2 μM and 80 seconds; immobilized human EphrinB2; 25 nM soluble human EphB2
Marks after values point to notes of the source that are not given here.
Below is a list of entries, each paired with its recorded EphB2 Inhibition Percent, Inhibition of Association ONLY value.

>>> print(df.to_string())
                                   compound  measured_value
0  Oc1ccc(CN2CCN(c3ccc(F)cc3F)CC2)c2cccnc12 [Compound 62]             0*%

GET /values?readout=EphB2 Inhibition Percent, Inhibition of Association ONLY&item= Oc1cccc2cccnc12 [Compound 102, 8-Hydroxyquinoline, reference compound]
0*%

GET /values?readout=EphB2 Inhibition Percent, Inhibition of Association ONLY&item= Cc1ccc2c(CN3CCN(c4ccc(Br)cc4)CC3)ccc(O)c2n1 [Compound 61]
0*%

Taken from patent US20260374739A1.
